# TEST_NAME: protein stability index of a GFP-peptide fusion (yeast GPS) (PSI 1-4); higher = more stable; sorted into four equal gates, so the index is relative within each strain
# TEST_CONDITIONS: ubr1∆
Reported protein stability index maps to class as: zone 1 (below 2), zone 2 (2 to below 3), zone 3 (3 or more)

{"SEQUENCE_CONTENT": "GFVRNSFFSGLSPPEFL [RPO31]", "LABEL": "zone 3"}
{"SEQUENCE_CONTENT": "TMIKKTTLVTRREELQQ [SMC3]", "LABEL": "zone 2"}
{"SEQUENCE_CONTENT": "TASSLAHDYNNDQDMFT [YML103C/NUP188]", "LABEL": "zone 3"}
{"SEQUENCE_CONTENT": "GKIRGVEDDLVTVQTEL [SMC2]", "LABEL": "zone 2"}

Incoming: Returns: class label. Input: NEDSKAFHTAVLRLNAI [NUT1]
Outgoing: zone 3

Incoming: Returns: class label. Input: IESDSILNLLNILTTHL [ECM29]
Outgoing: zone 2

Incoming: Returns: class label. Input: KKCPFTGLVSIRGKILT [RPS11A]
Outgoing: zone 1

Incoming: Returns: class label. Input: SYVETLDSMIELFKDYK [MED1]
Outgoing: zone 3

Incoming: Returns: class label. Input: KRPRSRTLTAVHDKILE [RPS7A]
Outgoing: zone 1

Incoming: Returns: class label. Input: SRLLDILEDYCYFRDFE [ISW2]
Outgoing: zone 1

Incoming: Returns: class label. Input: KFQLQNQLEDFILELEH [YIL149C/MLP2]
Outgoing: zone 1

Incoming: Returns: class label. Input: YYYYHPMNAPTPAMIPY [DSN1]
Outgoing: zone 2

Incoming: Returns: class label. Input: SSISWKNIAQCLSDYTK [YJL039C/NUP192]
Outgoing: zone 2

Incoming: Returns: class label. Input: SINVHSNNITSGLNRAI [RET1]
Outgoing: zone 3

Hello, the source for this data is the supplement of paper PMC9732359, in case you need it.
